All figures here come from the supplement of paper PMC4466140.

SPOT peptide array binding signal intensity overview
# ASSAYED SYSTEM: ScNbp2
# ASSAY REMARKS: SPOT peptide array binding signal intensity (averaged, normalized) (arbitrary units (background-subtracted, floor 0; scale differs between SH3 domains)); higher = stronger binding of the SH3 domain to the peptide
RECORDED METRIC: SPOT peptide array binding signal intensity

1. GRLRPKRIAPWHLIQ ... 1940
2. HVRRSILALPLGVLL ... 114
